- Target system: KRAS 4B G12C protein (Homo sapiens, UniProt P01116, G12C)
- Construct: This protein contained 188 amino acids in total, including an N-terminal 6-Histidine tag; made in house; host or cells: E. coli BL21
- Test details: In vitro covalent adduct formation (CAF) assay by LC-MS
- Format: binding
- Condition parameters: 10 minutes; compound 10 μM, protein 5 μM, 22° C.; percentage of protein bound by the compound
Measurement label: CAF (10 minutes/60 minutes) at 10 micromolar: 10 minutes (%/ 0%)

INSERT INTO results (compound, observed_value) VALUES
  ('C=CC(=O)N1CC2CC(=O)CC(C1)N2c1nc(OC[C@@H]2CCCN2C)nc2c1CN(C1CCc3ccccc31)C2 (stereo partly shown)', 0),
  ('C=C(F)C(=O)N1CCN(c2nc(OC[C@@H]3CCCN3C)nc3c2CN(Cc2n[nH]c4ccccc24)C3)C[C@@H]1CC#N', 0),
  ('C=CC(=O)N1CCN(c2nc(OC[C@@H]3CCCN3C)nc3c2CN(Cc2c(Cl)cccc2OC(F)F)C3)C[C@@H]1C', 0);
